# test.protocol: HUVEC growth inhibition – cell-based, human, primary screen (AID 575);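 further: 100% = median of untreated cell wells with 0.1% DMSO on each plate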
# condition.details: HUVEC proliferation, CellTiter-Glo luminescence, 72 h; at 10 µM; active compounds read low

compound | readout.units | viability
Cn1c(Cl)nc2ccccc21 | % | 90.7
CN(Cc1ccccc1)c1nc2c(c(=O)[nH]c(=O)n2C)n1Cc1ccccc1Cl | % | 82.2
Cc1cc(C)n(C(=O)CNC(=O)C2COc3ccccc3O2)n1 (configuration not stated) | % | 87.2
CC(=O)N1CCN(C(=O)COc2ccc(Br)cc2)CC1 | % | 113
CCn1c(SCC(=O)c2ccc(F)cc2)nnc1-c1ccoc1C | % | 104
COc1ccccc1CNS(=O)(=O)c1ccc(NC(C)=O)cc1 | % | 106
CC(=O)c1c(C)[nH]c(C(=O)Nc2ccc3c(c2)OCCO3)c1C | % | 86.1
CCOC(=O)C1CCCN(C(=O)c2cc(=O)c3ccccc3o2)C1 (configuration not stated) | % | 95.2
COc1cccc(OCC(O)CN2CCN(CCO)CC2)c1 (configuration not stated) | % | 101
CC(C)COC(=O)NCC12C=CC(O1)C1C(=O)N(c3ccc(Cl)cc3)C(=O)C12 (configuration not stated) | % | 116
c1ccc(Cn2nnnc2CN2CCN(c3ncccn3)CC2)cc1 | % | 92.1
O=C(CCNC(=O)Cn1ccc2ccccc2c1=O)NCCN1CCc2ccccc2C1 | % | 87.3
Nc1nc(CSCc2ccccc2)nc(N2CCOCC2)n1 | % | 109
CCOC(=O)c1cc(C)n(CCCN2CCOCC2)c1C | % | 92.4
O=C(CCCN1CC=C(n2c(=O)[nH]c3ccccc32)CC1)c1ccc(F)cc1 | % | 98.4
CCN(CC)CCN1C(=O)C(O)=C(C(=O)c2cccs2)C1c1ccccn1 (configuration not stated) | % | 100
Cc1ccc(Cn2c(C(=O)NCCCN3CCOCC3)cc3sccc32)cc1 | % | 63.6
CCC1(C)Cc2c(C#N)c(N)n(-c3ccccc3)c(=O)c2CO1 (configuration not stated) | % | 104
c1cn(CC2(Cn3ccnc3)COC2)cn1 | % | 83
COc1ccc(CC(NC(C)=O)C(=O)NC2CCN(c3nc(C)cc(C)c3C#N)CC2)c(OC)c1 (configuration not stated) | % | 117
COc1ccc(Br)cc1S(=O)(=O)N1CC(C)OC(C)C1 (configuration not stated) | % | 95.6
CNC(=O)CSc1nnc(-c2ccc(S(=O)(=O)N3CCCC3)cc2)n1-c1cccc(C)c1C | % | 86.4
COc1cccc(CNc2nc3nc(C)c(Cl)c(C)n3n2)c1 | % | 95.1
CC(C)(C)C(=O)CNS(=O)(=O)c1ccc(S(=O)(=O)NC2CCCC2)cc1 | % | 115
Cc1ccc(C)n1NC(=O)c1ccco1 | % | 87.2
CN(C)c1cccc2c(S(=O)(=O)Nc3ccccn3)cccc12 | % | 109
CC(=O)c1cnc2cc(-c3ccccc3)nn2c1C | % | 91.4
c1ccc(CNc2ccc3c(c2)ncn3C2CCCCC2)nc1 | % | 96
Cc1cc(C)n2nc(SCc3cc(=O)n4ccccc4n3)nc2n1 | % | 107
CCC1Oc2ccc(C)cc2N(CC(=O)N(Cc2cccnc2)Cc2ccc(C)o2)C1=O (configuration not stated) | % | 83.7
Cc1cc(=O)n(CC(C)C)c(O)c1C#N | % | 99.4
CN1C(=O)CC(C(=O)Nc2ccc(F)cc2)SC1=Nc1ccc2c(c1)OCO2 (configuration not stated) | % | 95
Cc1ccc(N2CC(C(=O)Nc3nnc(C)s3)CC2=O)cc1 (configuration not stated) | % | 86.2
Cc1nc2ccccc2cc1O | % | 85.9
CC(NC(=O)COc1ccc(Br)cc1)C(=O)O (configuration not stated) | % | 104
CCN(CC)S(=O)(=O)c1ccc(Br)c(OC)c1 | % | 90.4
Cc1cc2ccccn2c1C(=O)c1ccncc1 | % | 106
CCOc1ccc2nc(S(N)(=O)=O)sc2c1 | % | 59
CCOC(=O)CNc1ccc2c(c1)OCO2 | % | 76.6
C[C@]12CC[C@@H]3c4ccc(O)cc4CC[C@H]3[C@@H]1CC[C@@H]2OC(=O)CCC(=O)O | % | 99.3
Cn1c(=O)c2c(ncn2CC(=O)OCC(=O)NC2CCCc3ccccc32)n(C)c1=O (configuration not stated) | % | 110
O=c1c(-c2ccc(Br)cc2)coc2c(CN3CCOCC3)c(O)ccc12 | % | 101
Cc1cccc(CCNC(=O)CCc2nc(-c3ccccc3F)no2)c1 | % | 89.1
Cc1cnc(-c2nnc(N(C)C(=O)C3CCOC3)s2)cn1 (configuration not stated) | % | 98.2
Cc1onc(-c2ccccc2)c1C(N)=O | % | 97.7
COc1cc(S(=O)(=O)N2CCC(N3CCCCC3)CC2)ccc1-n1cnnn1 | % | 98.3
CCN(CC)CCN1C(=O)C(=O)/C(=C(/O)c2c(C)[nH]c(C(=O)OC)c2C)C1c1ccco1 (configuration not stated) | % | 107
